B1: HDV Ribozyme (parent)
chain: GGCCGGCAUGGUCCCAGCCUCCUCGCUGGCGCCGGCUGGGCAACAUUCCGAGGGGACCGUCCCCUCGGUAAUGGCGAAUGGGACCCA

# Variants of: B1
# Protocol Summary: self-cleavage, relative activity (ratio to wild type); higher = more cleavage; co-transcriptional
Threshold rule: self-cleavage greater than or equal to 0.2 is Y; below that, N.

In plain terms: is recorded self-cleavage at least 0.2 for C58G C62G ?
Y

Next: U12A G76U
Y

Again, but for C18G U37A
N

Then this variant: G11U G53C
Y

And the next one, U47C U72C ?
Y

Same question for C66G G76C please.
Y

Consider next the variant G28C U79A in the same way.
N

Another variant: C14U G25U
Y

U27G C62G ?
Y

// query: G1U U20G
Y

Also G53U A77U , if possible.
Y

What do we get for U12C C32U ?
N

Can you handle G10C C48U next?
Y

Repeat with C62G G82A
Y

Thanks! And U37A A51C ?
Y

For C3U C48G then?
Y

Same question, G1A C61A this time
N

Now the same for C32A C84G
N

Another variant to look at: G1U C44A
Y

Proceed to C36G G80U
N

Also check U20C G34A
N

Now consider C4A U72A and answer again.
N

Also need G50C C85A , thanks.
Y

And the next one, A16C C66A ?
Y

Note, next up: C19U C58U
N

Do the same for G40C U47A please
N

// same read-out, input: C32A G55A
N

Field entry: G6A G35U
N

Now consider G34C C44G .
N

Again, but for G25C C62A
N

Consider next the variant C33A G39U in the same way.
N

Then G29U G40A ?
N
